Each recorded value in this set is attributed to ChEMBL document CHEMBL1153593.

Tested on: Plasmodium berghei
Assay: Gametocytocidal activity as infected mosquitoes against Plasmodium berghei at 10 uM/kg
Format: functional
readout-type: Activity (%)
Write down the numeric answer in % and omit the unit.

Incoming: Report Activity, nothing else, for this molecule: COc1cc(NC(C)CCCN2C(=O)[C@@H](C)NC23CCCCC3)c2ncccc2c1 (stereo partly drawn)
Outgoing: 20

Incoming: Report Activity, nothing else, for this molecule: COc1cc(NC(C)CCCN2C(=O)[C@@H](C(C)C)NC23CCCCC3)c2ncccc2c1 (stereo partly drawn)
Outgoing: 85

Incoming: Report Activity, nothing else, for this molecule: COc1cc(NC(C)CCCN2C(=O)[C@@H](Cc3ccccc3)NC23CCCC3)c2ncccc2c1 (stereo partly drawn)
Outgoing: 65

---

Can you tell me Activity for the items I'm about to list?
System: Plasmodium yoelii
Assay: Antimalarial activity as reduced parasitaemia at day 4 against Plasmodium yoelii N67 infected Swiss mice (Mus musculus) compared to chloroquine
Format: functional, N-67
Parameters: concentration or dose not given beside the values
Write down the numeric answer in % and omit the unit.

Incoming: Specify the recorded Activity for O=C1CSC(c2c(Cl)cccc2Cl)N1CCNc1ccnc2cc(Cl)ccc12 (stereo not given) , system: Plasmodium yoelii.
Outgoing: 76.08

Incoming: Specify the recorded Activity for O=C1c2ccccc2SC(c2c(Cl)cccc2Cl)N1CCCNc1ccnc2cc(Cl)ccc12 (stereo not given) , system: Plasmodium yoelii.
Outgoing: 23.5

Incoming: Specify the recorded Activity for O=C1c2ccccc2SC(c2ccc(Cl)cc2)N1CCCNc1ccnc2cc(Cl)ccc12 (stereo not given) , system: Plasmodium yoelii.
Outgoing: 40.08

Incoming: Specify the recorded Activity for CCN(CC)CCCC(C)Nc1ccnc2cc(Cl)ccc12 (stereo not given) [CHLOROQUINE] , system: Plasmodium yoelii.
Outgoing: 99.9

Incoming: Specify the recorded Activity for O=C1CCSC(c2ccc(Cl)cc2)N1CCNc1ccnc2cc(Cl)ccc12 (stereo not given) , system: Plasmodium yoelii.
Outgoing: 81

---

Tested on: Plasmodium falciparum
Test: Antimalarial activity against chloroquine-resistant Plasmodium falciparum W2
Type: functional, organism-based
pIC50: −log10 of the molar value.
Please enter rule met where pIC50 is greater than or equal to 6, and rule not met where it is lower.

Incoming: Does CC(C)(C)C(=O)CN(CCNc1ccnc2cc(Cl)ccc12)C(=O)c1ccc(O)cc1O have a reported pIC50 of at least 6?
Outgoing: rule not met

Incoming: Does Clc1ccc2c(NCCCN(CCc3ccccc3)Cc3ncc[nH]3)ccnc2c1 have a reported pIC50 of at least 6?
Outgoing: rule met

Incoming: Does CC(C)(C)NC(=O)C1(C)CCC(=O)N1CCCCCCNc1ccnc2cc(Cl)ccc12 (configuration not stated) have a reported pIC50 of at least 6?
Outgoing: rule met

Incoming: Does O=C(CN(CCCNc1ccnc2cc(Cl)ccc12)C(=O)c1ccc(O)cc1O)C1CCCCC1 have a reported pIC50 of at least 6?
Outgoing: rule not met

Incoming: Does CCCCN(CCCNc1ccnc2cc(Cl)ccc12)Cc1ccoc1 have a reported pIC50 of at least 6?
Outgoing: rule met

---

Can you tell me IC50 for the items I'm about to list?
Test system: Plasmodium falciparum
Test: Antimalarial activity against chloroquine-resistant Plasmodium falciparum W2
Format: functional, organism-based
Write down the numeric answer in nM and omit the unit.

Incoming: Report IC50, nothing else, for this molecule: NC(=S)N/N=C1/C(=O)N(CCNc2ccnc3cc(Cl)ccc23)c2ccccc21
Outgoing: 240

Incoming: Report IC50, nothing else, for this molecule: O=C(CN(CCNc1ccnc2cc(Cl)ccc12)C(=O)c1ccncc1)C1CCCCC1
Outgoing: 619

Incoming: Report IC50, nothing else, for this molecule: CCCCNC(=O)C[C@H](O)[C@H](CC(C)C)NC(=O)[C@@H](NC(=O)Cc1ccc2cc(C(=O)OCCCC(=O)N[C@H](C(=O)N[C@H](CCCCN)C(=O)NCCCC(C)Nc3cc(OC)cc4cccnc34)C(C)C)ccc2c1)[C@H](C)CC (some centres not stated)
Outgoing: 1000

Incoming: Report IC50, nothing else, for this molecule: CCCCNC(=O)C[C@H](O)[C@H](CC(C)C)NC(=O)[C@@H](NC(=O)Cc1ccc2cc(CC(=O)N[C@H](C(=O)N[C@H](CCCCN)C(=O)NCCCC(C)Nc3cc(OC)cc4cccnc34)C(C)C)ccc2c1)[C@H](C)CC (some centres not stated)
Outgoing: 4700

Incoming: Report IC50, nothing else, for this molecule: CC(C)(C)C(=O)CN(CCNc1ccnc2cc(Cl)ccc12)C(=O)c1ccncc1
Outgoing: 991

Incoming: Report IC50, nothing else, for this molecule: CC(C)(C)C(=O)CN(CCCNc1ccnc2cc(Cl)ccc12)C(=O)c1cnccn1
Outgoing: 1650

Incoming: Report IC50, nothing else, for this molecule: CCCCN(CCCNc1ccnc2cc(Cl)ccc12)Cc1ccsc1
Outgoing: 50

---

Assay: Cytotoxicity against human MRC5 cells
Format: cell-based
Conditions: read-out: CD50 (the source's name)
readout-type: CC50

Incoming: Report CC50, nothing else, for this compound: CCCCCCCNCCCN1CCN(CCCNc2ccnc3cc(Cl)ccc23)CC1
Outgoing: < 3.1 µM

---

Test system: Plasmodium berghei
Assay: Gametocytocidal activity as infected mosquitoes against Plasmodium berghei at 10 uM/kg
Assay type: functional
Quick rule for you: Activity under 30% gets Satisfied, anything else gets Not satisfied.

Incoming: Please let me know if COc1cc(NC(C)CCCN2C(=O)[C@@H](C(C)C)NC2(C)C)c2ncccc2c1 (stereo not given in full) shows Activity below 30%.
Outgoing: Satisfied

Incoming: Please let me know if COc1cc(NC(C)CCCN2C(=O)[C@@H](C(C)C)NC23CCCC3)c2ncccc2c1 (stereo not given in full) shows Activity below 30%.
Outgoing: Not satisfied

Incoming: Please let me know if COc1cc(NC(C)CCCN2C(=O)[C@@H](C(C)C)NC23CCCCCC3)c2ncccc2c1 (stereo not given in full) shows Activity below 30%.
Outgoing: Not satisfied

Incoming: Please let me know if COc1cc(NC(C)CCCN2C(=O)[C@@H](Cc3ccccc3)NC23CCCCC3)c2ncccc2c1 (stereo not given in full) shows Activity below 30%.
Outgoing: Not satisfied

Incoming: Please let me know if COc1cc(NC(C)CCCN2C(=O)[C@@H](Cc3ccccc3)NC2(C)C)c2ncccc2c1 (stereo not given in full) shows Activity below 30%.
Outgoing: Not satisfied

Incoming: Please let me know if COc1cc(NC(C)CCCN2C(=O)CNC2(C)C)c2ncccc2c1 (stereo not given) shows Activity below 30%.
Outgoing: Satisfied

Incoming: Please let me know if COc1cc(NC(C)CCCN)c2ncccc2c1 (stereo not given) [PRIMAQUINE] shows Activity below 30%.
Outgoing: Satisfied

Incoming: Please let me know if COc1cc(NC(C)CCCN2C(=O)[C@@H](Cc3ccccc3)NC23CCCCCC3)c2ncccc2c1 (stereo not given in full) shows Activity below 30%.
Outgoing: Not satisfied

Incoming: Please let me know if COc1cc(NC(C)CCCN2C(=O)CNC23CCCCC3)c2ncccc2c1 (stereo not given) shows Activity below 30%.
Outgoing: Satisfied

---

Consider the following pIC50 values measured on UniProt P46925.
Sequence (P46925 whole entry): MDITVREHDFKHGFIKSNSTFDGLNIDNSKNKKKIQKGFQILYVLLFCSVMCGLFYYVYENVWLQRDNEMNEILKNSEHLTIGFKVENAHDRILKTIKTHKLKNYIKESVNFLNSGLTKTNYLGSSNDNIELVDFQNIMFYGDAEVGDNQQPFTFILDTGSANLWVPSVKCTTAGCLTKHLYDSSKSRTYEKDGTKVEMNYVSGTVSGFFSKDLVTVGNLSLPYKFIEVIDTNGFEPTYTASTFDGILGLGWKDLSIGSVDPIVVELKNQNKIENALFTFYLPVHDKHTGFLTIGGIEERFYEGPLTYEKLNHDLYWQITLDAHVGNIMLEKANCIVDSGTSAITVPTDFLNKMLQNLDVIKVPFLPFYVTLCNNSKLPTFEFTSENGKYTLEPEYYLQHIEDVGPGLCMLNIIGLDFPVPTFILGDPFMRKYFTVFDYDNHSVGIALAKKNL
In plain terms, pIC50 is the concentration in mol/L turned into minus its base-10 logarithm.

Incoming: Report pIC50, nothing else, for this compound: CCCCNC(=O)C[C@H](O)[C@H](CC(C)C)NC(=O)[C@@H](NC(=O)c1ccc(Oc2ccc(C(=O)N[C@H](C(=O)N[C@H](CCCCN)C(=O)NCCCC(C)Nc3cc(OC)cc4cccnc34)C(C)C)cc2)cc1)[C@H](C)CC (stereo not given in full)
Outgoing: 6.23

Incoming: Report pIC50, nothing else, for this compound: CCCCNC(=O)C[C@H](O)[C@H](CC(C)C)NC(=O)[C@@H](NC(=O)Cc1ccc2cc(CC(=O)N[C@H](C(=O)N[C@H](CCCCN)C(=O)NCCCC(C)Nc3cc(OC)cc4cccnc34)C(C)C)ccc2c1)[C@H](C)CC (stereo not given in full)
Outgoing: 5.82

Incoming: Report pIC50, nothing else, for this compound: CCCCNC(=O)C[C@H](O)[C@H](CC(C)C)NC(=O)[C@@H](NC(=O)Cc1ccc2cc(C(=O)OCCCC(=O)N[C@H](C(=O)N[C@H](CCCCN)C(=O)NCCCC(C)Nc3cc(OC)cc4cccnc34)C(C)C)ccc2c1)[C@H](C)CC (stereo not given in full)
Outgoing: 5.02

Incoming: Report pIC50, nothing else, for this compound: CCCCNC(=O)C[C@H](O)[C@H](CC(C)C)NC(=O)[C@@H](NC(=O)CCC(=O)N[C@H](C(=O)N[C@H](CCCCN)C(=O)NCCCC(C)Nc1cc(OC)cc2cccnc12)C(C)C)[C@H](C)CC (stereo not given in full)
Outgoing: 3.40

Incoming: Report pIC50, nothing else, for this compound: CCCCNC(=O)C[C@H](O)[C@H](CC(C)C)NC(=O)[C@@H](NC(=O)Cc1ccc(CC(=O)N[C@H](C(=O)N[C@H](CCCCN)C(=O)NCCCC(C)Nc2cc(OC)cc3cccnc23)C(C)C)cc1)[C@H](C)CC (stereo not given in full)
Outgoing: 3.87
